# Assay Text: Cytotoxicity against mouse corneal fibroblast cells assessed as viability at 25 ug/ml after 24 hrs by CCK8 assay relative to control
# Type: cell-based
# Reported Conditions: at 25 µg/mL, read-out: Activity
Result Type: viability at 24 h, 25 ug/ml (%)
// return numeric value only (unit: %, not printed)

Query (compound): "CC(C)=CCOc1ccc(/C=C/C(=O)c2ccc(OCC=C(C)C)cc2OCC(=O)N[C@@H](CCCNC(=N)N)C(=O)N[C@@H](CCCNC(=N)N)C(N)=O)cc1" ; field requested: viability at 24 h, 25 ug/ml
59.9
